Assign hCRHR1 Reporter IC50 to each entry below.
# study_system: T1, corticotropin-releasing hormone (CRH) peptide (human and mouse, not fully specified)
# T1 peptide: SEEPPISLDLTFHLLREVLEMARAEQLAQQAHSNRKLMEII
# test_protocol: cell-based or functional assay
Give a bare numeral; the unit nM is implied.

Looking up PR302331 (antibody, human IgG1, kappa, V domains shown, Mouse variable domains, expressed recombinantly with human IgG1 wildtype Fc; also called Series 9 mAb) VH: EVKLVESGGGLVKPGGSLKLSCAASGFTFSSYAMSWVRQSPEKRLEWVASIRSGGTTYYPDSVKGRFTISRDNARNILYLQMSSLRSEDTAIYYCTRGIDWGQGTLVTVSA VL: NIVMTQTPKFLLVSAGDRVTIACKASQSVNNDVAWYQQKPGQSPKLLIYYASNRYTGVPDRFTGSGYGTDFTFTISTVQAEDLAVYFCQQDYSSWTFGGGTKLEIKR , I found its hCRHR1 Reporter IC50 recorded as 0.39

Looking up PR301612 (antibody, human IgG1, kappa, V domains shown, Mouse variable domains, expressed recombinantly with human IgG1 wildtype Fc; also called Series 4 mAb) VH: EVKLEESGGGLVQPGGSIKLSCVASGFTFSGAWMAWVRQSPEKGLEWVAEIKNKANNHATFYAESVKGRFIISRDDSKSSVYLQMNSLRAEDTGTYYCTLPDVWGTGTTVTVSS VL: QIVLTQSPAIMSASPGERVTISCSASSSVSNMYWYLQKPGSSPKPWIYRTSNLASGVPARFSGSGSGTSYSLTISSMEAEDVATYYCQQYHSFPRTFGGGTKLEIKR , I found its hCRHR1 Reporter IC50 recorded as 18.1

Looking up PR004290 (antibody, human IgG1, kappa, V domains shown, Expressed recombinantly with human IgG1 wildtype Fc; also called Hybridoma Clone 28b3; Series 1 mAb) VH: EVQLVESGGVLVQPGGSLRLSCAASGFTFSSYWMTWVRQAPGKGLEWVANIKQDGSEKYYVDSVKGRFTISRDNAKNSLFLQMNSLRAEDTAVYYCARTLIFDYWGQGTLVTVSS VL: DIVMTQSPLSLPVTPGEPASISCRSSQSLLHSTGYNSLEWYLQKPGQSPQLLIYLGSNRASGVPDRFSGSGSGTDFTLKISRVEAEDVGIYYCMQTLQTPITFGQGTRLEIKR , I found its hCRHR1 Reporter IC50 recorded as 3.69

Looking up PR302335 (antibody, human IgG1, kappa, V domains shown, Mouse variable domains, expressed recombinantly with human IgG1 wildtype Fc; also called Series 8 mAb) VH: DVQLVESGGGLVQPGGSRKLSCAASGFTFSSFGMHWVRQAPEKGLEWVAYISSGSTIFYYADTVKGRFTISRDNPKNTLFLQMTSLRSEDTAMYYCARDITTATFAFWGQGTLVTVSA VL: DVVLTQTPLSLPVSLGDQVSISCRSSQNLLHNNGNTYLHWYLQKPGQSPRLLIYKVSNRFSGVPDRFSGSGSGTDFTLKITRVEAEDLGVYFCSQSTHIPWTFGGGTKLEIKR , I found its hCRHR1 Reporter IC50 recorded as 3.72

Looking up PR301780 (antibody, human IgG1, kappa, V domains shown, Mouse variable domains, expressed recombinantly with human IgG1 wildtype Fc; also called Series 7 mAb) VH: QIQLVQSGPELKKPGETVKISCKASGYTFTNFGLNWVKQAPGKGLKWMGWINTYTGEPTYTDDFKGRFAFSLETSASTAYLQINNLKKEDTATYFCARGTYRDDGAWFAYWGQGTLVTVSA VL: DVLMTQTPLSLPVSLGDQASISCRSSQIIVHSNGNTYLEWYLQKPGQSPKLLIYKVSNRFSGVPDRFSGSGSGTDFTLKISRVEAEDLGVYHCFQGSHVPWTFGGGTKLEIKR , I found its hCRHR1 Reporter IC50 recorded as 61.1

Looking up PR301306 (antibody, human IgG1, kappa, V domains shown, Mouse variable domains, expressed recombinantly with human IgG1 wildtype Fc; also called Series 3 mAb) VH: EVKLEESGGGLVQPGGSMKLSCVASGFTFSNYWMNWVRQSPEKGLEWVAEIRLKSNNYATLYAESVKGRFTISRDDSKSSVYLQMNNLRAEDTGIYYCTRGTLVYWGQGTLVTVSA VL: DIVLTQSPASLAVSLGQRATISCRASQSVSTSDYNYMHWYQQKPGQPPKLLIKYASNLESGVPARFSGSGSGTDFTLNIHPVEEEDTATYYCQHSWEIPYTFGGGTKLEIKR , I found its hCRHR1 Reporter IC50 recorded as 35.6

Reference source: patent US20260042834A1
